Biological target: T1, human APRIL (5860-AP-010/CF, R&D Systems) (human, UniProt O75888 115-250, limits assumed)
T1 sequence (looked up): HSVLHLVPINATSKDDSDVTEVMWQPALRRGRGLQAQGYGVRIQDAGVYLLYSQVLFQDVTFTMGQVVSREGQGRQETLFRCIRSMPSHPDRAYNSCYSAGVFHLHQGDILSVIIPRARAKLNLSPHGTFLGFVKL
Assay: cell-based or functional assay
QUANTITY MEASURED: IC50 (nM) for the inhibition of the APRIL-induced B cell proliferation

BINDER: TACI-9-15Fc6 fusion protein (Fc fusion, Full-length chain) STSCREEQGEFYDHLLRDCISCASICGQHPKQCAAFCEEPKSSDKTHTCPPCPAPEAEGAPSVFLFPPKPKDTLMISRTPEVTCVVVDVSHEDPEVKFNWYVDGVEVHNAKTKPREEQYNSTYRVVSVLTVLHQDWLNGKEYKCKVSNKALPSSIEKTISKAKGQPREPQVYTLPPSRDELTKNQVSLTCLVKGFYPSDIAVEWESNGQPENNYKTTPPVLDSDGSFFLYSKLTVDKSRWQQGNVFSCSVMHEALHNHYTQKSLSLSPGK
EXPERIMENTAL RESULT: 0.14
//
BINDER: TACI-9-15Fc8 fusion protein (Fc fusion, Full-length chain) STSCREEQGEFYDHLLRDCISCASICGQHPKQCAAFCEEPKSSDKTHTCPPCPAPEAEGAPSVFLFPPKPKDTLMISRTPEVTCVVVDVSHEDPEVKFNWYVDGVEVHNAKTKPREEQYNSTYRVVSVLTVLHQDWLNGKEYKCKVSNKALPSSIEKTISKAKGQPREPQVYTLPPSRDELTKNQVSLTCLVKGFYPSDIAVEWESNGQPENNYKTTPPVLDSDGSFFLYSKLTVDKSRWQQGNVFSCSVMHEALHNHYTQKSLSLSPGGGGSSTSCREEQGEFYDHLLRDCISCASICGQHPKQCAAFCESK
EXPERIMENTAL RESULT: 0.00477
//
BINDER: TACI-9-15Fc7 fusion protein (Fc fusion, Full-length chain) STSCREEQGEFYDHLLRDCISCASICGQHPKQCAAFCEEPKSSDKTHTCPPCPAPEAEGAPSVFLFPPKPKDTLMISRTPEVTCVVVDVSHEDPEVKFNWYVDGVEVHNAKTKPREEQYNSTYRVVSVLTVLHQDWLNGKEYKCKVSNKALPSSIEKTISKAKGQPREPQVYTLPPSRDELTKNQVSLTCLVKGFYPSDIAVEWESNGQPENNYKTTPPVLDSDGSFFLYSKLTVDKSRWQQGNVFSCSVMHEALHNHYTQKSLSLSPGGGGSSTSCREEQGEFYDHLLRDCISCASICGQHPKQCAAFCEQK
EXPERIMENTAL RESULT: 0.00481
